Tested on: K562
Assay: Anti-proliferative activity against human K562 cells measured after 72 hrs by MTS assay
Assay type: functional, cell-based
Settings: K562, 72 h
outcomeMeasure: IC50 (nM)

- COC(=O)c1cc(OC)c2c(c1-c1c(C(=O)OC3CCN(CC(=O)OCCOCCOc4no[n+]([O-])c4S(=O)(=O)c4ccccc4)CC3)cc(OC)c3c1OCO3)OCO2: 640
- COC(=O)c1cc(OC)c2c(c1-c1c(C(=O)OCCN3CCN(CC(=O)OC(C)(C)CCOc4no[n+]([O-])c4S(=O)(=O)c4ccccc4)CC3)cc(OC)c3c1OCO3)OCO2: 860
- COC(=O)c1cc(OC)c2c(c1-c1c(C(=O)OC3CCN(CC(=O)OCCCCOc4nonc4S(=O)(=O)c4ccccc4)CC3)cc(OC)c3c1OCO3)OCO2: 68000
- COC(=O)c1cc(OC)c2c(c1-c1c(C(=O)OCCN3CCN(CC(=O)OC(C)CCOc4no[n+]([O-])c4S(=O)(=O)c4ccccc4)CC3)cc(OC)c3c1OCO3)OCO2 (stereo not given): 380
- COC(=O)c1cc(OC)c2c(c1-c1c(C(=O)OC3CCN(CC(=O)OCCCCOc4no[n+]([O-])c4S(=O)(=O)c4ccccc4)CC3)cc(OC)c3c1OCO3)OCO2: 690
- COC(=O)c1cc(OC)c2c(c1-c1c(C(=O)OC3CCN(CC(=O)OCCOc4no[n+]([O-])c4S(=O)(=O)c4ccccc4)CC3)cc(OC)c3c1OCO3)OCO2: 510
- O=C(CN1CCC(OC(=O)c2ccccc2)CC1)OCCCCOc1nonc1S(=O)(=O)c1ccccc1: 4060
- O=C(CN1CCC(O)CC1)OCCCCOc1no[n+]([O-])c1S(=O)(=O)c1ccccc1: 2250
- COC(=O)c1cc(OC)c2c(c1-c1c(C(=O)OCCN3CCN(CC(=O)OCCOCCOc4no[n+]([O-])c4S(=O)(=O)c4ccccc4)CC3)cc(OC)c3c1OCO3)OCO2: 380
- COC(=O)c1cc(OC)c2c(c1-c1c(C(=O)OC3CCN(CC(=O)OC(C)(C)CCOc4no[n+]([O-])c4S(=O)(=O)c4ccccc4)CC3)cc(OC)c3c1OCO3)OCO2: 870
- COC(=O)c1cc(OC)c2c(c1-c1c(C(=O)OC3CCN(CC(=O)OC(C)CCOc4no[n+]([O-])c4S(=O)(=O)c4ccccc4)CC3)cc(OC)c3c1OCO3)OCO2 (stereo not given): 390
- COc1cccc2c1C(=O)c1c(O)c3c(c(O)c1C2=O)C[C@@](O)(C(=O)CO)C[C@@H]3O[C@H]1C[C@H](N)[C@H](O)[C@H](C)O1.Cl [DOXORUBICIN HYDROCHLORIDE]: 590
- COC(=O)c1cc(OC)c2c(c1-c1c(C(=O)O)cc(OC)c3c1OCO3)OCO2: 137000
- COC(=O)c1cc(OC)c2c(c1-c1c(C(=O)OC3CCN(CC(=O)NCCOc4no[n+]([O-])c4S(=O)(=O)c4ccccc4)CC3)cc(OC)c3c1OCO3)OCO2: 1280
- COC(=O)c1cc(OC)c2c(c1-c1c(C(=O)OCCN3CCN(CC(=O)OCCOc4no[n+]([O-])c4S(=O)(=O)c4ccccc4)CC3)cc(OC)c3c1OCO3)OCO2: 580
- COC(=O)c1cc(OC)c2c(c1-c1c(C(=O)OCCN3CCN(CC(=O)NCCOc4no[n+]([O-])c4S(=O)(=O)c4ccccc4)CC3)cc(OC)c3c1OCO3)OCO2: 550
- COC(=O)c1cc(OC)c2c(c1-c1c(C(=O)OCCN3CCN(CC(=O)OCCCCOc4no[n+]([O-])c4S(=O)(=O)c4ccccc4)CC3)cc(OC)c3c1OCO3)OCO2: 690
- COC(=O)c1cc(OC)c2c(c1-c1c(C(=O)OC3CCN(CC(=O)OCCCOc4no[n+]([O-])c4S(=O)(=O)c4ccccc4)CC3)cc(OC)c3c1OCO3)OCO2: 800
- COC(=O)c1cc(OC)c2c(c1-c1c(C(=O)OCCN3CCN(CC(=O)OCCCOc4no[n+]([O-])c4S(=O)(=O)c4ccccc4)CC3)cc(OC)c3c1OCO3)OCO2: 750

###

Experiment: Drug metabolism in P-gp overexpressing/drug resistant human K562/A02 cells assessed as nitric oxide production at 100 uM measured at 240 mins by Griess assay
Assay type: ADME, cell-based
Conditions: k562/a02, 4 h
outcomeMeasure: Drug metabolism

* COC(=O)c1cc(OC)c2c(c1-c1c(C(=O)OCCN3CCN(CC(=O)OCCCOc4no[n+]([O-])c4S(=O)(=O)c4ccccc4)CC3)cc(OC)c3c1OCO3)OCO2 | Metabolite_Detected
* COC(=O)c1cc(OC)c2c(c1-c1c(C(=O)OC3CCN(CC(=O)NCCOc4no[n+]([O-])c4S(=O)(=O)c4ccccc4)CC3)cc(OC)c3c1OCO3)OCO2 | Metabolite_Detected
* COC(=O)c1cc(OC)c2c(c1-c1c(C(=O)O)cc(OC)c3c1OCO3)OCO2 | Metabolite_Notdetected
* COC(=O)c1cc(OC)c2c(c1-c1c(C(=O)OC3CCN(CC(=O)OCCCCOc4no[n+]([O-])c4S(=O)(=O)c4ccccc4)CC3)cc(OC)c3c1OCO3)OCO2 | Metabolite_Detected
* COC(=O)c1cc(OC)c2c(c1-c1c(C(=O)OCCN3CCN(CC(=O)OC(C)(C)CCOc4no[n+]([O-])c4S(=O)(=O)c4ccccc4)CC3)cc(OC)c3c1OCO3)OCO2 | Metabolite_Detected
* COC(=O)c1cc(OC)c2c(c1-c1c(C(=O)OC3CCN(CC(=O)OCCOCCOc4no[n+]([O-])c4S(=O)(=O)c4ccccc4)CC3)cc(OC)c3c1OCO3)OCO2 | Metabolite_Detected
* COC(=O)c1cc(OC)c2c(c1-c1c(C(=O)OC3CCN(CC(=O)OCCCCOc4nonc4S(=O)(=O)c4ccccc4)CC3)cc(OC)c3c1OCO3)OCO2 | Metabolite_Notdetected

###

Consider the following molecules and their measured IC50 readings.
Tested on: K562/A02
Experiment: Anti-proliferative activity against P-gp overexpressing/drug resistant human K562/A02 cells measured after 72 hrs by MTS assay
Assay type: functional, cell-based
Settings: K562/A02, 72 h
outcomeMeasure: IC50 (nM)

- COC(=O)c1cc(OC)c2c(c1-c1c(C(=O)OCCN3CCN(CC(=O)OC(C)(C)CCOc4no[n+]([O-])c4S(=O)(=O)c4ccccc4)CC3)cc(OC)c3c1OCO3)OCO2: 1510
- COC(=O)c1cc(OC)c2c(c1-c1c(C(=O)OC3CCN(CC(=O)OCCCCOc4no[n+]([O-])c4S(=O)(=O)c4ccccc4)CC3)cc(OC)c3c1OCO3)OCO2: 550
- COC(=O)c1cc(OC)c2c(c1-c1c(C(=O)OCCN3CCN(CC(=O)OCCOc4no[n+]([O-])c4S(=O)(=O)c4ccccc4)CC3)cc(OC)c3c1OCO3)OCO2: 2010
- COC(=O)c1cc(OC)c2c(c1-c1c(C(=O)OC3CCN(CC(=O)OCCCOc4no[n+]([O-])c4S(=O)(=O)c4ccccc4)CC3)cc(OC)c3c1OCO3)OCO2: 590
- COC(=O)c1cc(OC)c2c(c1-c1c(C(=O)OCCN3CCN(CC(=O)OC(C)CCOc4no[n+]([O-])c4S(=O)(=O)c4ccccc4)CC3)cc(OC)c3c1OCO3)OCO2 (stereo not given): 810
- COC(=O)c1cc(OC)c2c(c1-c1c(C(=O)OC3CCN(CC(=O)OCCOc4no[n+]([O-])c4S(=O)(=O)c4ccccc4)CC3)cc(OC)c3c1OCO3)OCO2: 650
- COC(=O)c1cc(OC)c2c(c1-c1c(C(=O)OCCN3CCN(CC(=O)OCCOCCOc4no[n+]([O-])c4S(=O)(=O)c4ccccc4)CC3)cc(OC)c3c1OCO3)OCO2: 2300
- O=C(CN1CCC(OC(=O)c2ccccc2)CC1)OCCCCOc1nonc1S(=O)(=O)c1ccccc1: 6650
- COC(=O)c1cc(OC)c2c(c1-c1c(C(=O)O)cc(OC)c3c1OCO3)OCO2: 125000
- COC(=O)c1cc(OC)c2c(c1-c1c(C(=O)OC3CCN(CC(=O)NCCOc4no[n+]([O-])c4S(=O)(=O)c4ccccc4)CC3)cc(OC)c3c1OCO3)OCO2: 3160
- COC(=O)c1cc(OC)c2c(c1-c1c(C(=O)OC3CCN(CC(=O)OC(C)(C)CCOc4no[n+]([O-])c4S(=O)(=O)c4ccccc4)CC3)cc(OC)c3c1OCO3)OCO2: 910
- COC(=O)c1cc(OC)c2c(c1-c1c(C(=O)OCCN3CCN(CC(=O)OCCCCOc4no[n+]([O-])c4S(=O)(=O)c4ccccc4)CC3)cc(OC)c3c1OCO3)OCO2: 1570
- COC(=O)c1cc(OC)c2c(c1-c1c(C(=O)OC3CCN(CC(=O)OC(C)CCOc4no[n+]([O-])c4S(=O)(=O)c4ccccc4)CC3)cc(OC)c3c1OCO3)OCO2 (stereo not given): 760
- COC(=O)c1cc(OC)c2c(c1-c1c(C(=O)OC3CCN(CC(=O)OCCOCCOc4no[n+]([O-])c4S(=O)(=O)c4ccccc4)CC3)cc(OC)c3c1OCO3)OCO2: 890
- O=C(CN1CCC(O)CC1)OCCCCOc1no[n+]([O-])c1S(=O)(=O)c1ccccc1: 4110
- COc1cccc2c1C(=O)c1c(O)c3c(c(O)c1C2=O)C[C@@](O)(C(=O)CO)C[C@@H]3O[C@H]1C[C@H](N)[C@H](O)[C@H](C)O1.Cl [DOXORUBICIN HYDROCHLORIDE]: 24500
- COC(=O)c1cc(OC)c2c(c1-c1c(C(=O)OCCN3CCN(CC(=O)OCCCOc4no[n+]([O-])c4S(=O)(=O)c4ccccc4)CC3)cc(OC)c3c1OCO3)OCO2: 930
- COC(=O)c1cc(OC)c2c(c1-c1c(C(=O)OCCN3CCN(CC(=O)NCCOc4no[n+]([O-])c4S(=O)(=O)c4ccccc4)CC3)cc(OC)c3c1OCO3)OCO2: 3010
- COC(=O)c1cc(OC)c2c(c1-c1c(C(=O)OC3CCN(CC(=O)OCCCCOc4nonc4S(=O)(=O)c4ccccc4)CC3)cc(OC)c3c1OCO3)OCO2: 73000
